- Test system: PC-3
- assay.procedure: NCI tumour cell line growth inhibition, 48 h
Calls of active or inactive are those of the source. Cut-off read from the data, not from the text of the source: active = GI50 up to about 1.1 µM and inactive = higher.
Possible outcomes: Y = active, N = inactive

> print(dat)
                                    molecule  class
 1  COc1ccc2nc3ccc(OC)cc3c([S+]([O-])Cc3ccc([N+](=O)[O-])cc3)c2c1 (centres undefined)      N
 2  CCOC(=O)C1C(c2ccc(OC)cc2)c2c(n[nH]c2O)CC1(O)OCC (centres undefined)      N
 3  COC(=O)[C@@H]1C[C@@H]2c3ccccc3N(S(=O)(=O)c3ccccc3)[C@@H]2N1C(=O)OC      N
 4  CC(C)(C)C1CCC2c3c([nH]c4ccccc34)C3C(=O)N(c4cccc(Cl)c4)C(=O)C3C2C1 (centres undefined)      N
 5      O=C(Nc1nccs1)NS(=O)(=O)n1cnc2ccccc21      N
 6  COc1cc(S(=O)(=O)Nc2nc(-c3ccc(N)cc3)cs2)ccc1Cl      N
 7  COC(=O)/C(=N\Nc1nnc(C)n1N)C(C#N)c1ccccc1 (centres undefined)      N
 8  CC(=O)OCC1OC(n2ncc(=O)[nH]c2=O)C(OC(C)=O)C1OC(C)=O (centres undefined)      N
 9                O=C(NC1CCCCC1)c1nn[nH]c1Cl      N
10  O=C(NC1=C(Cl)C(=O)c2ccccc2C1=O)c1ccc(F)cc1      N
11                C=CCOn1c(C=C)nc2c(C)cccc21      N
12    O=C1C=C(c2c(O)ccc3ccccc23)c2ccccc2C1=O      N
13  O=C1Cc2c([nH]c3ccc(Br)cc23)-c2cc(Br)ccc2N1      N
14  COc1cc2cc(C(=O)N3CC(CCl)c4ccc([N+](C)(C)Cc5ccccc5[N+](=O)[O-])cc43)[nH]c2c(OC)c1OC (centres undefined)      N
15  CCOC(=O)C(C(N)=O)C1=Nc2cc([N+](=O)[O-])ccc2N/C1=C\C(=O)c1ccc(C)cc1 (centres undefined)      N
16          S=C(S)N1CCN(c2ccc(Cl)c(Cl)c2)CC1      N
17  CCn1c2ccc(C(=O)CCCN(C)C)cc2c2cc(C(=O)CCCN(C)C)ccc21      N
18               Clc1ccc2oc(CCc3ccccc3)nc2c1      N
19  O=c1cc(-c2ccccc2)nc(-n2[nH]c3c(c2=O)CCCC3)[nH]1      N
20  COC(=O)CCC1(C)C2CCC1/C(=N/O)C2 (centres undefined)      N
21  Nc1nc(N)c2cc(S(=O)(=O)c3ccc4ccccc4c3)ccc2n1      N
22  O=C1CSC(c2ccc(Cl)cc2)N1c1ccc(-c2ccc(-n3c(-c4ccccc4)nc4ccccc4c3=O)cc2)cc1 (centres undefined)      N
23  CC(=O)OC12COC1CC(O)C1(C)C(=O)C(O)C3=C(C)C(O)CC(O)(C(OC(=O)c4ccccc4)C21)C3(C)C (centres undefined)      N
24    CC1=CCC[C@]2(C)C1=CC(=O)O[C@H]2c1ccoc1      N
25  O=c1[nH]cnc2c(C3OC(CO)C(O)C3O)c[nH]c12 (centres undefined)      N
26              Nc1nc(Cl)cc(NCCC2(CO)CCC2)n1      N
27         CCOC(=O)NC(=S)NN(C)C1=NCC(C)(C)S1      N
28  CC1CCCCN1CC(=O)c1ccc2c(c1)Sc1ccccc1O2 (centres undefined)      N
29   Cc1cc(OC(=O)NCn2cc(-c3ccccc3)nn2)ccc1Cl      N
30              CSc1nc(NC2CCCC2)c2cc[nH]c2n1      N
31  COc1ccc(/N=N/c2ccc3oc(=O)c(C(=O)Nc4ccc(OC)cc4)cc3c2)cc1      N
32  O=c1[nH]c(=O)n(C2CC(O)C(CO)O2)c2nc3ccc4cc5ccccc5cc4c3nc12 (centres undefined)      N
33  CC1(N2CCOCC2)CC2C(=[N+]1[O-])CCC/C2=N/O (centres undefined)      N
34  CCCCCC/C=C1\CCC(CN(C)C)C1=O (centres undefined)      N
35  COC(=O)c1c(C)cccc1C1CN=NC12Cc1cccc(C)c1C2=O (centres undefined)      N
36        CCOP(=O)(COCCn1ncc(=O)[nH]c1=O)OCC      N
37  Cc1ccc(S(=O)(=O)N2CCN(CCN(C)CCN3CCN(S(=O)(=O)c4ccc(C)cc4)CC3)CC2)cc1      N
38  O=[N+]([O-])C(/C(Cl)=C(\Cl)Br)=C(/Cl)SCc1ccccc1      N
39  CCCCCCNCCCNc1c2ccccc2nc2cccc([N+](=O)[O-])c12      Y
40  O=C1NC(N2CCCC(CO)C2)=N/C1=C\c1cccs1 (centres undefined)      N
41  Cc1ccc(N2C(=O)C=C(C3=C(O)C(=O)N(c4ccc(C)cc4)C3=O)C2=O)cc1      N
42  CNC(=O)N(C1=NCC(C)S1)c1ccc(C)c(C)c1 (centres undefined)      N
43  CC1(C)O[C@H]2[C@@H]3N=C(c4ccccc4)O[C@@H]3C=C[C@H]2O1      N
44                     c1ccc2c(c1)SCCCSCCCS2      N
